B1: tRNA (parent)
chain: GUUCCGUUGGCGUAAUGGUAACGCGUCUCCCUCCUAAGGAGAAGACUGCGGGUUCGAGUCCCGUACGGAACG

# Variants of: B1
# measurement_protocol: yeast fitness relative to wild type (ratio to wild type); higher = fitter; tRNA-Arg(CCU), competitive growth, 37 C, YPD
Fewer inactive variants are shown than the library holds.
measured_endpoint: yeast fitness
Form: value (number only, do not type unit).

GUUCCGUUGGCGUAAUGGUAACGCGUCUCCCUCCUAUGGAGAAGACUGCGGGUUCGUGUCCCGUCCGAAACG [A37U A57U A65C G68A] :: 0.561
GUUCCGUUGGCGUAAUGCUAACGCGUCUCCCUACUAAGGAGAAGACUGCGGGUACGAGUCCAGUACGGAACG [G18C C33A U54A C62A] :: 0.577
GUUCCGUUGGCGUAAUGGUAAAGCGUAUCCCUCCUAAGGAGAAGACUGCGGGUUCGAGCCCCGUACGGAACG [C22A C27A U59C] :: 0.586
GUUCUGUUGGCGUAAUGGUAACGCGUCUCCCUCCUAAGGAGAAGACUGCGGGUUCGGGUCCCAUACGGAACG [C5U A57G G63A] :: 0.63

Now consider a different variant.
What value of measured yeast fitness is listed for GUUCCGUUGGCGUAUUGGUAACGCGUCUCCCUCCUAAGGAGAAGACUGCGCGUUCGAGUCCCGUACGGAACG [A15U G51C] ?
0.555
